Where these numbers come from: patent US20260365677A1

test system: freshly isolated rat hepatocytes; test: Uptake into freshly isolated rat hepatocytes; format: cell-based; settings: 100 μmol Gd/L, 10 min, 37 °C, relative to RC1 (Gd-EOB-DTPA)
Parameter measured: Uptake rat hepatocytes

Answer with reported Uptake rat hepatocytes of CCOc1ccc(CC2CN(CC(=O)[O-])CCN(CC(=O)[O-])CCN(CC(=O)O)CCN2CC(=O)[O-])cc1.[Gd+3] (single isomer, unassigned; diastereomer 1) [Example 8] 143 % of RC1

Answer with reported Uptake rat hepatocytes of COCCOCCOCCOc1ccc(C[C@H]2CN(CC(=O)[O-])CCN(CC(=O)[O-])CCN(CC(=O)O)CCN2CC(=O)[O-])cc1.[Gd+3] 47 % of RC1

Answer with reported Uptake rat hepatocytes of CCOCCOCCOCCOc1ccc(C[C@H]2CN(CC(=O)[O-])CCN(CC(=O)[O-])CCN(CC(=O)O)CCN2CC(=O)[O-])cc1.[Gd+3] 57 % of RC1

Answer with reported Uptake rat hepatocytes of CCOCCOCCOc1ccc(C[C@H]2CN(CC(=O)[O-])CCN(CC(=O)[O-])CCN(CC(=O)O)CCN2CC(=O)[O-])nc1.[Gd+3] 47 % of RC1

Answer with reported Uptake rat hepatocytes of CCCCOc1ccc(C[C@H]2CN(CC(=O)[O-])CCN(CC(=O)[O-])CCN(CC(=O)O)CCN2CC(=O)[O-])cc1.[Gd+3] (single isomer, unassigned; stereoisomer 2) [Example 13] 137 % of RC1

Answer with reported Uptake rat hepatocytes of CCCCOc1ccc(C[C@H]2CN(CC(=O)[O-])CCN(CC(=O)[O-])CCN(CC(=O)O)CCN2CC(=O)[O-])cc1.[Gd+3] (single isomer, unassigned; stereoisomer 1) [Example 12] 110 % of RC1

Answer with reported Uptake rat hepatocytes of CCOCCOc1ccc(C[C@H]2CN(CC(=O)[O-])CCN(CC(=O)[O-])CCN(CC(=O)O)CCN2CC(=O)[O-])cc1.[Gd+3] 67 % of RC1

Answer with reported Uptake rat hepatocytes of CCOCCOCCOc1ccc(C[C@H]2CN(CC(=O)[O-])CCN(CC(=O)[O-])CCN(CC(=O)O)CCN2CC(=O)[O-])cc1.[Gd+3] 65 % of RC1

----------
Target: OATP1B3 (Homo sapiens, UniProt Q9NPD5)
Construct: expressed in transfected cells
Sequence (Q9NPD5 1-702): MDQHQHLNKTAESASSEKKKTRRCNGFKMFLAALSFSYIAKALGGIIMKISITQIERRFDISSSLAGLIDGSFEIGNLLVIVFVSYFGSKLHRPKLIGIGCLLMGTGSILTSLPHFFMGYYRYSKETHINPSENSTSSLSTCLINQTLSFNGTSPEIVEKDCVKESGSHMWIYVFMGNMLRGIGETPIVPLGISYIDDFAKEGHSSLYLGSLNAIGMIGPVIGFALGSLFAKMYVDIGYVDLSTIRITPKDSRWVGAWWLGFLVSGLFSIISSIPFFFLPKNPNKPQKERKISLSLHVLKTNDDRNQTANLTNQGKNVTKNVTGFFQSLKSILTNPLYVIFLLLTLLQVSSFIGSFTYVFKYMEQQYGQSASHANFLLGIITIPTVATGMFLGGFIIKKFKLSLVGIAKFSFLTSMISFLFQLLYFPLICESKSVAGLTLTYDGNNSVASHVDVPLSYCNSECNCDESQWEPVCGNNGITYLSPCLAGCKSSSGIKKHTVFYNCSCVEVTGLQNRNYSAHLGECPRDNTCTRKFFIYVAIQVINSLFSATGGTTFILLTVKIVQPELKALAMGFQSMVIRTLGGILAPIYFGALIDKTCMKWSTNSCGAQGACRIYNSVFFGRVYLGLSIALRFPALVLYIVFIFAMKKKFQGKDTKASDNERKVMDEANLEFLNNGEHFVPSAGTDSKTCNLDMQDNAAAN
Assay: Uptake into stable transfected OATP1B3 HEK 293 cells
Assay type: cell-based
Details: 100 μM, 40 min, relative to RC1 (Gd-EOB-DTPA)
Parameter measured: Uptake into OATP1B3-HEK 293 cells

Answer with reported Uptake into OATP1B3-HEK 293 cells of CCCCOc1ccc(C[C@H]2CN(CC(=O)[O-])CCN(CC(=O)[O-])CCN(CC(=O)O)CCN2CC(=O)[O-])cc1.[Gd+3] (single isomer, unassigned; stereoisomer 1) [Example 12] 66 % of RC1

Answer with reported Uptake into OATP1B3-HEK 293 cells of CCOCCOCCOc1ccc(C[C@H]2CN(CC(=O)[O-])CCN(CC(=O)[O-])CCN(CC(=O)O)CCN2CC(=O)[O-])cc1.[Gd+3] [Example 2] 121 % of RC1

Answer with reported Uptake into OATP1B3-HEK 293 cells of CCOCCOCCOCCOc1ccc(C[C@H]2CN(CC(=O)[O-])CCN(CC(=O)[O-])CCN(CC(=O)O)CCN2CC(=O)[O-])cc1.[Gd+3] [Example 5] 100 % of RC1

Answer with reported Uptake into OATP1B3-HEK 293 cells of CCOc1ccc(C[C@H]2CN(CC(=O)[O-])CCN(CC(=O)[O-])CCN(CC(=O)O)CCN2CC(=O)[O-])cc1.[Gd+3] (single isomer, unassigned; stereoisomer 1) [Example 10] 80 % of RC1

Answer with reported Uptake into OATP1B3-HEK 293 cells of COCCOCCOCCOc1ccc(C[C@H]2CN(CC(=O)[O-])CCN(CC(=O)[O-])CCN(CC(=O)O)CCN2CC(=O)[O-])cc1.[Gd+3] [Example 1] 79 % of RC1

Answer with reported Uptake into OATP1B3-HEK 293 cells of CCOCCOCCOc1ccc(C[C@H]2CN(CC(=O)[O-])CCN(CC(=O)[O-])CCN(CC(=O)O)CCN2CC(=O)[O-])nc1.[Gd+3] [Example 6] 32 % of RC1

Answer with reported Uptake into OATP1B3-HEK 293 cells of CCOc1ccc(CC2CN(CC(=O)[O-])CCN(CC(=O)[O-])CCN(CC(=O)O)CCN2CC(=O)[O-])cc1.[Gd+3] (single isomer, unassigned; diastereomer 1) [Example 8] 94 % of RC1

Answer with reported Uptake into OATP1B3-HEK 293 cells of CCCCOc1ccc(C[C@H]2CN(CC(=O)[O-])CCN(CC(=O)[O-])CCN(CC(=O)O)CCN2CC(=O)[O-])cc1.[Gd+3] (single isomer, unassigned; stereoisomer 2) [Example 13] 383 % of RC1

Answer with reported Uptake into OATP1B3-HEK 293 cells of COCCOCCOCCOc1ccc(C[C@@H]2CN(CC(=O)[O-])CCN(CC(=O)[O-])CCN(CC(=O)O)CCN2CC(=O)[O-])cc1.[Gd+3] [Example 3] 28 % of RC1

Answer with reported Uptake into OATP1B3-HEK 293 cells of CCOCCOc1ccc(C[C@H]2CN(CC(=O)[O-])CCN(CC(=O)[O-])CCN(CC(=O)O)CCN2CC(=O)[O-])cc1.[Gd+3] [Example 4] 103 % of RC1

Answer with reported Uptake into OATP1B3-HEK 293 cells of CCOc1ccc(CC2CN(CC(=O)[O-])CCN(CC(=O)[O-])CCN(CC(=O)O)CCN2CC(=O)[O-])cc1.[Gd+3] (single isomer, unassigned; diastereomer 2) [Example 9] 13 % of RC1

Answer with reported Uptake into OATP1B3-HEK 293 cells of CCOc1ccc(C[C@H]2CN(CC(=O)[O-])CCN(CC(=O)[O-])CCN(CC(=O)O)CCN2CC(=O)[O-])cc1.[Gd+3] (single isomer, unassigned; stereoisomer 2) [Example 11] 32 % of RC1

Answer with reported Uptake into OATP1B3-HEK 293 cells of CCOc1ccc(CC2CN(CC(=O)[O-])CCN(CC(=O)[O-])CCN(CC(=O)O)CCN2CC(=O)[O-])cc1.[Gd+3] (stereo not shown) [Example 7] 36 % of RC1

----------
assay: Relaxivity measurements at 1.41 T in water and human plasma; type: physicochemical; conditions: water, 37 °C, normalized to Gd
Could you please report measured r1 water for the items listed next?
State the answer as a number, implicitly in L/mmol/s.

Answer with reported r1 water of CCOCCOCCOc1ccc(C[C@H]2CN(CC(=O)[O-])CCN(CC(=O)[O-])CCN(CC(=O)O)CCN2CC(=O)[O-])nc1.[Gd+3] 5.3

Answer with reported r1 water of CCOCCOCCOc1ccc(C[C@H]2CN(CC(=O)[O-])CCN(CC(=O)[O-])CCN(CC(=O)O)CCN2CC(=O)[O-])cc1.[Gd+3] 4.9

Answer with reported r1 water of CCCCOc1ccc(C[C@H]2CN(CC(=O)[O-])CCN(CC(=O)[O-])CCN(CC(=O)O)CCN2CC(=O)[O-])cc1.[Gd+3] (single isomer, unassigned; stereoisomer 2) [Example 13] 5.3

Answer with reported r1 water of CCOCCOc1ccc(C[C@H]2CN(CC(=O)[O-])CCN(CC(=O)[O-])CCN(CC(=O)O)CCN2CC(=O)[O-])cc1.[Gd+3] 4.8

Answer with reported r1 water of CCOc1ccc(CC2CN(CC(=O)[O-])CCN(CC(=O)[O-])CCN(CC(=O)O)CCN2CC(=O)[O-])cc1.[Gd+3] (single isomer, unassigned; diastereomer 1) [Example 8] 4.7

Answer with reported r1 water of CCOc1ccc(CC2CN(CC(=O)[O-])CCN(CC(=O)[O-])CCN(CC(=O)O)CCN2CC(=O)[O-])cc1.[Gd+3] (stereo not shown) [Example 7] 4.5

Answer with reported r1 water of CCOc1ccc(CC2CN(CC(=O)[O-])CCN(CC(=O)[O-])CCN(CC(=O)O)CCN2CC(=O)[O-])cc1.[Gd+3] (single isomer, unassigned; diastereomer 2) [Example 9] 4.3

Answer with reported r1 water of CCOCCOCCOCCOc1ccc(C[C@H]2CN(CC(=O)[O-])CCN(CC(=O)[O-])CCN(CC(=O)O)CCN2CC(=O)[O-])cc1.[Gd+3] 5.1

Answer with reported r1 water of CCCCOc1ccc(C[C@H]2CN(CC(=O)[O-])CCN(CC(=O)[O-])CCN(CC(=O)O)CCN2CC(=O)[O-])cc1.[Gd+3] (single isomer, unassigned; stereoisomer 1) [Example 12] 4.7

Answer with reported r1 water of CCOc1ccc(C[C@H]2CN(CC(=O)[O-])CCN(CC(=O)[O-])CCN(CC(=O)O)CCN2CC(=O)[O-])cc1.[Gd+3] (single isomer, unassigned; stereoisomer 2) [Example 11] 4.4

Answer with reported r1 water of COCCOCCOCCOc1ccc(C[C@H]2CN(CC(=O)[O-])CCN(CC(=O)[O-])CCN(CC(=O)O)CCN2CC(=O)[O-])cc1.[Gd+3] 5.1

Answer with reported r1 water of COCCOCCOCCOc1ccc(C[C@@H]2CN(CC(=O)[O-])CCN(CC(=O)[O-])CCN(CC(=O)O)CCN2CC(=O)[O-])cc1.[Gd+3] 5.0

Answer with reported r1 water of CCOc1ccc(C[C@H]2CN(CC(=O)[O-])CCN(CC(=O)[O-])CCN(CC(=O)O)CCN2CC(=O)[O-])cc1.[Gd+3] (single isomer, unassigned; stereoisomer 1) [Example 10] 4.8
